Molecular target: Furin (Homo sapiens, UniProt P09958)
Sequence (P09958 whole entry): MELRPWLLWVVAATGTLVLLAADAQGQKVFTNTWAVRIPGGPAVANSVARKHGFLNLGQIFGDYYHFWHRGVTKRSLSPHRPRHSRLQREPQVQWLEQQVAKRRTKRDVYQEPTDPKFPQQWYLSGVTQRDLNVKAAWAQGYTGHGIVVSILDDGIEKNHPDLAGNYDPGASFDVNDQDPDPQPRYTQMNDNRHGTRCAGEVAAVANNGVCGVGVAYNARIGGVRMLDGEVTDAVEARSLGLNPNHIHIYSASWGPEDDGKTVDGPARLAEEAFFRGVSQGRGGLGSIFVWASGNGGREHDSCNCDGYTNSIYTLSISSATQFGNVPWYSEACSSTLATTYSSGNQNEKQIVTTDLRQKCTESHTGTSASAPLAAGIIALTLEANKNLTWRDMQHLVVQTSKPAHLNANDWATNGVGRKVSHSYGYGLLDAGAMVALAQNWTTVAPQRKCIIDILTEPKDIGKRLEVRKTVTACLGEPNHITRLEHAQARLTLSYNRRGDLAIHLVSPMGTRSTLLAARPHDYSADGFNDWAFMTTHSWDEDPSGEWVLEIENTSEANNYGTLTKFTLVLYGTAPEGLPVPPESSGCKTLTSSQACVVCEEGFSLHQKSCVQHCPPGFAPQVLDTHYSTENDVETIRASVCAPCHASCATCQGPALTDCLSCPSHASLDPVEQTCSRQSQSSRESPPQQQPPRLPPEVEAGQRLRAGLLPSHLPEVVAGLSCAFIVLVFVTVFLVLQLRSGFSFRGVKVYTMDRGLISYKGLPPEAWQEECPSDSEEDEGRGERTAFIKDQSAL
Assay: Inhibition of recombinant soluble human furin using Phac-Arg-Val-Arg-Arg-AMC fluorogenic substrate
Reported pKi is given for each of the following molecules.
pKi field: float, defined as -log10 of concentration (mol/L).

Examples with answers:
>>> reading("CC(C)(C)[C@H](NC(=O)[C@H](CCCNC(=N)N)NC(=O)Cc1ccc(CN)cc1)C(=O)N[C@@H](CCONC(=N)N)C(=O)NCc1ccc(C(=N)N)cc1")
10.11
>>> reading("CC(C)(C)[C@H](NC(=O)[C@H](CCONC(=N)N)NC(=O)Cc1ccc(CNC(=N)N)cc1)C(=O)N[C@@H](CCCCN)C(=O)NCc1ccc(C(=N)N)cc1")
10.44
>>> reading("CC(C)(C)[C@H](NC(=O)[C@H](CCONC(=N)N)NC(=O)Cc1ccc(CN)cc1)C(=O)N[C@@H](CCONC(=N)N)C(=O)NCc1ccc(C(=N)N)cc1")
10.47

Next item in the queue.
Could you share which pKi value was measured for CC(C)(C)[C@H](NC(=O)[C@H](CCCNC(=N)N)NC(=O)Cc1ccc(CNC(=N)N)cc1)C(=O)N[C@@H](CCONC(=N)N)C(=O)NCc1ccc(C(=N)N)cc1 ?
10.88
